Origin of measurements: patent US6964979B2

Entries and their IC50
Target: HCV RdRp NS5B d21BK (BK strain, 1b subtype) (Hepatitis C virus genotype 1b, UniProt P26663)
Construct: NS5B from the BK strain (1b subtype) is expressed in E. coli as a protein in which the 21 C-terminal amino acids are replaced
Sequence (P26663 2420-2989): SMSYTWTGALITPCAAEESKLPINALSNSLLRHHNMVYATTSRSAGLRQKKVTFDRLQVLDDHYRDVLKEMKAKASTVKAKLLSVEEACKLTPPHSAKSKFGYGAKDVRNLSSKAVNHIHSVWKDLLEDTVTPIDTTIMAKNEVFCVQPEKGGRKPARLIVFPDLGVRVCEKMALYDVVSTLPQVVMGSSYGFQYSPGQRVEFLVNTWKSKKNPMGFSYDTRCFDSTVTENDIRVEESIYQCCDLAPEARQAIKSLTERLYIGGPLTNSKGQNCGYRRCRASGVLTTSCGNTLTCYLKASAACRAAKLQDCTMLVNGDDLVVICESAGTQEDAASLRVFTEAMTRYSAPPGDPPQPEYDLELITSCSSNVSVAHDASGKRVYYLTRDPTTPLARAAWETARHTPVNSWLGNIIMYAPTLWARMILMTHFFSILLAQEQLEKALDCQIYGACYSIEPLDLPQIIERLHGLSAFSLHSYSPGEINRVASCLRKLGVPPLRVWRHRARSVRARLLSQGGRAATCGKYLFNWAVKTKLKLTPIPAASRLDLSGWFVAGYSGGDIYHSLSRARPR
Experiment: Hepatitis C polymerase (NS5B RdRp) inhibition, 33P-GTP incorporation filter assay
Settings: NS5B d21BK 24 nM, 2 hours at room temperature; read-out: HCV pol IC50
Express it in nM; write the number only.

// below: answered molecules
{"Sample smiles": "CCC[C@]1(CC(=O)O)OCCc2c1[nH]c1c(C)cc(F)c(C#N)c21", "Obs value": 80}
{"Sample smiles": "CCC[C@]1(CC(=O)O)OCCc2c1[nH]c1c(Cl)ccc(Cl)c21", "Obs value": 60}
{"Sample smiles": "CCC[C@]1(CC(=O)O)OCCc2c1[nH]c1c(C)ccc(C#N)c21", "Obs value": 330}

In the following, a different molecule is considered.
Specify measured IC50 for `CCC[C@]1(CC(=O)O)OCCc2c1[nH]c1c(F)ccc(C#N)c21` . 440
